# reported OD at 490 nm; entries follow
# target under test: T1, Full length recombinant HBcAg (rHBcAg) encompassing residues 1-183 (hepatitis B virus, UniProt P03146 1-183)
# T1 construct: range 1-183; also called hepatitis B virus core antigen
# T1 sequence (P03146 whole entry, the tested form may be a part): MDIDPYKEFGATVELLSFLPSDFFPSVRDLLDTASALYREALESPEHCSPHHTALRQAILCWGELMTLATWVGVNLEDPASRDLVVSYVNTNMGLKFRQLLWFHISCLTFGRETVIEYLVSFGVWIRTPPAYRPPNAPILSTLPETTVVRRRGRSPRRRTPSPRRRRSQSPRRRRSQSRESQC
# method description: competition EIA, HBcAg coated 1 ug/ml, peptide 6.25 ug/ml before mAb 4-2 (competitor); OD of bound mAb

Take a look at these entries with their results.
VKPGASVKISCKASGYSFTG (also called Peptide # 25) [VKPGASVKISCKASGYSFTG (SEQ. ID. No. 28)]    0.329 OD
LAVSLGQRATISCRASQSVS [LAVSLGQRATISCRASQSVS (SEQ. ID. No. 16)]    0.35 OD
ISCRASQSVSTSSYSYMHWY [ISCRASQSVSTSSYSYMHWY (SEQ. ID. No. 17)]    0.37 OD
CKASGYSFTGYNMNWVKQSH (also called Peptide # 26) [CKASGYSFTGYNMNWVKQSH (SEQ. ID. No. 29)]    0.351 OD
QQKPGQPPKLLIKYASNLES [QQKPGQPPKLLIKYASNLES (SEQ. ID. No. 19)]    0.336 OD

Next binder, OD at 490 nm to be filled in.
## Input Look up OD at 490 nm for this binder: VKPGASVKLSCKASGYIFTS (also called Peptide # 2; Pept. #2) [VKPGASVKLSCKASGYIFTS (SEQ. ID. No. 5)]
## Output 0.336 OD
